STUDY TARGET: SHV-1 (Klebsiella pneumoniae)
Construct: made in house; host or cells: E. coli (DH5 and BL21(DE3) named; pET-28a)
Sequence (P0AD64 22-286): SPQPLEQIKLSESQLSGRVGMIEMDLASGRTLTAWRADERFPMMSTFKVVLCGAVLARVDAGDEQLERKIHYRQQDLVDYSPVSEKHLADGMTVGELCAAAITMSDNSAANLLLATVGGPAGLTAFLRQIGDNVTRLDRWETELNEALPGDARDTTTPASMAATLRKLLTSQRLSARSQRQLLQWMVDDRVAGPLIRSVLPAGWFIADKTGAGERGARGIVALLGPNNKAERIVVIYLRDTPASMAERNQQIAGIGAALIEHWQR
TEST DESCRIPTION: Steady-state kinetics of antibiotic hydrolysis with inhibitor
Format: biochemical
CONDITION INFO: cefotaxime, inhibitor concentration as per IC50
ASSAY READOUT: kcat (S^−1)
Provide the reading as a plain figure in S^−1.

## Input Specify measured kcat for O=C(CN1C(=O)c2ccccc2S1(=O)=O)c1ccc(O)c(O)c1 [D63] .
## Output 1.621

## Input Specify measured kcat for O=C(O)c1ccccc1C(=O)N1CCN(c2nc(-c3ccccc3)ns2)CC1 [D2573] .
## Output 0.8431

## Input Specify measured kcat for O=C(c1ccccc1)C1CCN(C(=O)CN2C(=O)c3ccccc3C2=O)CC1 [D2148] .
## Output 6.751

## Input Specify measured kcat for NC(=O)[C@@H]1CC[C@@H]2CN1C(=O)N2OS(=O)(=O)O [Avibactam, reference compound] .
## Output 0.6119

###

STUDY TARGET: CTX-M-15 (Escherichia coli, UniProt Q9EXV5)
Construct: made in house; host or cells: E. coli (DH5 and BL21(DE3) named)
Sequence (Q9EXV5 29-291, species assumed): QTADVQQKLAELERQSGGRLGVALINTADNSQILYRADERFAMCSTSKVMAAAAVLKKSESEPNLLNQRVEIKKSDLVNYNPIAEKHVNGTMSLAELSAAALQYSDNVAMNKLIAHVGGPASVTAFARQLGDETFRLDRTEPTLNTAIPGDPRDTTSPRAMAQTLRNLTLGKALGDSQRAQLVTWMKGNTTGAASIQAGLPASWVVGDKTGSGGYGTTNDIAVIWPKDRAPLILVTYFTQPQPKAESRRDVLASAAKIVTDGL
TEST DESCRIPTION: IC50, nitrocefin hydrolysis
Format: biochemical
CONDITION INFO: 100 μΜ nitrocefin
Give IC50 for every item shown.
Provide the reading as a plain figure in nM.

## Input Specify measured IC50 for O=C(O)c1ccccc1C(=O)N1CCN(c2nc(-c3ccccc3)ns2)CC1 [D2573] .
## Output 0.731

## Input Specify measured IC50 for O=C(c1ccccc1)C1CCN(C(=O)CN2C(=O)c3ccccc3C2=O)CC1 [D2148] .
## Output 0.638

## Input Specify measured IC50 for O=C(CN1C(=O)c2ccccc2S1(=O)=O)c1ccc(O)c(O)c1 [D63] .
## Output 0.779

###

STUDY TARGET: TEM-1 (Escherichia coli, UniProt P62593)
Construct: made in house; host or cells: E. coli (DH5 and BL21(DE3) named; pET-28a)
Sequence (P62593 24-286 limits assumed): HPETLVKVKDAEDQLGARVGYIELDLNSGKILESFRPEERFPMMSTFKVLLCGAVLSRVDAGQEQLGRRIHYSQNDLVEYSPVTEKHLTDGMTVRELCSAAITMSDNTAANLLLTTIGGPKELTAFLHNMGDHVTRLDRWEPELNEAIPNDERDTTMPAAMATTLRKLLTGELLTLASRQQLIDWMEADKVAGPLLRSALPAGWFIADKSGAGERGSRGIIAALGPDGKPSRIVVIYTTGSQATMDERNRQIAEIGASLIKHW
TEST DESCRIPTION: Steady-state kinetics of antibiotic hydrolysis with inhibitor
Format: biochemical
CONDITION INFO: cefotaxime, inhibitor concentration as per IC50
Give Km or Ki for every item shown.
Provide the reading as a plain figure in μΜ.

## Input Specify measured Km or Ki for "O=C(O)c1ccccc1C(=O)N1CCN(c2nc(-c3ccccc3)ns2)CC1" .
## Output 905.2

## Input Specify measured Km or Ki for "O=C(c1ccccc1)C1CCN(C(=O)CN2C(=O)c3ccccc3C2=O)CC1" .
## Output 757.7

###

STUDY TARGET: CTX-M-15 (Escherichia coli, UniProt Q9EXV5)
Construct: made in house; host or cells: E. coli (DH5 and BL21(DE3) named)
TEST DESCRIPTION: Steady-state kinetics of antibiotic hydrolysis with inhibitor
Assay type: biochemical
CONDITION INFO: cefotaxime, inhibitor concentration as per IC50
ASSAY READOUT: Km or Ki (μΜ)
Provide the reading as a plain figure in μΜ.

## Input Specify measured Km or Ki for O=C(O)c1ccccc1C(=O)N1CCN(c2nc(-c3ccccc3)ns2)CC1 [D2573] .
## Output 330.1

## Input Specify measured Km or Ki for NC(=O)[C@@H]1CC[C@@H]2CN1C(=O)N2OS(=O)(=O)O [Avibactam, reference compound] .
## Output 2047

## Input Specify measured Km or Ki for O=C(c1ccccc1)C1CCN(C(=O)CN2C(=O)c3ccccc3C2=O)CC1 [D2148] .
## Output 670.6

## Input Specify measured Km or Ki for O=C(CN1C(=O)c2ccccc2S1(=O)=O)c1ccc(O)c(O)c1 [D63] .
## Output 742.7

###

STUDY TARGET: NDM-1 (Klebsiella pneumoniae)
Construct: made in house; host or cells: E. coli (DH5 and BL21(DE3) named)
Sequence (C7C422 29-270, looked up, species assumed): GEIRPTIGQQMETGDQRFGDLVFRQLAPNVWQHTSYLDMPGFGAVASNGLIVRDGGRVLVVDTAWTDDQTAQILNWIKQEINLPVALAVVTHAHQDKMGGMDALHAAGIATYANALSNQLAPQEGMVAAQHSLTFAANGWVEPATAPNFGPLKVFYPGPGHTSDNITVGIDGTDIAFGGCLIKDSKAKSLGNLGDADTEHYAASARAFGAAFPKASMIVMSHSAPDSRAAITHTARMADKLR
TEST DESCRIPTION: Steady-state kinetics of antibiotic hydrolysis with inhibitor
Assay type: biochemical
CONDITION INFO: cefotaxime, inhibitor concentration as per IC50
ASSAY READOUT: Km or Ki (μΜ)
Provide the reading as a plain figure in μΜ.

## Input Specify measured Km or Ki for NC(=O)[C@@H]1CC[C@@H]2CN1C(=O)N2OS(=O)(=O)O [Avibactam, reference compound] .
## Output 212.2

## Input Specify measured Km or Ki for "O=C(CN1C(=O)c2ccccc2S1(=O)=O)c1ccc(O)c(O)c1" .
## Output 410.8

###

Give kcat for every item shown.
STUDY TARGET: Amp-C (Escherichia coli, UniProt P00811)
Construct: made in house; host or cells: E. coli (DH5 and BL21(DE3) named; pET-28a)
Sequence (P00811 20-377): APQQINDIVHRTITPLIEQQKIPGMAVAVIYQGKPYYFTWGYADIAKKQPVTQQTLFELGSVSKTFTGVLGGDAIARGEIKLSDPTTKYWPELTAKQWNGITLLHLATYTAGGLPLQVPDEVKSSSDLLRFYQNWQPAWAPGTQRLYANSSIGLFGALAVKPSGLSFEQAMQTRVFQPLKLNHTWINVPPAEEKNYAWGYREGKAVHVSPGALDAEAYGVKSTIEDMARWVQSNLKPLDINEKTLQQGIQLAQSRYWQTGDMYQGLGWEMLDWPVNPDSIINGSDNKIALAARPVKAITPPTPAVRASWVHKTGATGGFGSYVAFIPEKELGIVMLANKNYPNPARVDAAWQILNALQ
TEST DESCRIPTION: Steady-state kinetics of antibiotic hydrolysis with inhibitor
Assay type: biochemical
CONDITION INFO: meropenem, inhibitor concentration as per IC50
Provide the reading as a plain figure in S^−1.

## Input Specify measured kcat for "O=C(O)c1ccccc1C(=O)N1CCN(c2nc(-c3ccccc3)ns2)CC1" .
## Output 1.09

## Input Specify measured kcat for "O=C(CN1C(=O)c2ccccc2S1(=O)=O)c1ccc(O)c(O)c1" .
## Output 1.093

## Input Specify measured kcat for NC(=O)[C@@H]1CC[C@@H]2CN1C(=O)N2OS(=O)(=O)O [Avibactam, reference compound] .
## Output 2.213

## Input Specify measured kcat for "O=C(c1ccccc1)C1CCN(C(=O)CN2C(=O)c3ccccc3C2=O)CC1" .
## Output 2.637

###

Give kcat for every item shown.
STUDY TARGET: TEM-1 (Escherichia coli)
Construct: made in house; host or cells: E. coli (DH5 and BL21(DE3) named; pET-28a)
TEST DESCRIPTION: Steady-state kinetics of antibiotic hydrolysis with inhibitor
Type: biochemical
CONDITION INFO: imipenem, inhibitor concentration as per IC50

## Input Please report the measured kcat for O=C(c1ccccc1)C1CCN(C(=O)CN2C(=O)c3ccccc3C2=O)CC1 [D2148] tested on TEM-1 (Escherichia coli).
## Output 0.9853 S^−1

## Input Please report the measured kcat for O=C(CN1C(=O)c2ccccc2S1(=O)=O)c1ccc(O)c(O)c1 [D63] tested on TEM-1 (Escherichia coli).
## Output 1.194 S^−1

## Input Please report the measured kcat for O=C(O)c1ccccc1C(=O)N1CCN(c2nc(-c3ccccc3)ns2)CC1 [D2573] tested on TEM-1 (Escherichia coli).
## Output 1.454 S^−1

## Input Please report the measured kcat for NC(=O)[C@@H]1CC[C@@H]2CN1C(=O)N2OS(=O)(=O)O [Avibactam, reference compound] tested on TEM-1 (Escherichia coli).
## Output 1.107 S^−1

###

STUDY TARGET: SHV-1 (Klebsiella pneumoniae)
Construct: made in house; host or cells: E. coli (DH5 and BL21(DE3) named; pET-28a)
TEST DESCRIPTION: Steady-state kinetics of antibiotic hydrolysis with inhibitor
Assay type: biochemical
CONDITION INFO: meropenem, inhibitor concentration as per IC50
ASSAY READOUT: kcat (S^−1)
Provide the reading as a plain figure in S^−1.

## Input Specify measured kcat for O=C(O)c1ccccc1C(=O)N1CCN(c2nc(-c3ccccc3)ns2)CC1 [D2573] .
## Output 1.232

## Input Specify measured kcat for O=C(CN1C(=O)c2ccccc2S1(=O)=O)c1ccc(O)c(O)c1 [D63] .
## Output 1.928

## Input Specify measured kcat for O=C(c1ccccc1)C1CCN(C(=O)CN2C(=O)c3ccccc3C2=O)CC1 [D2148] .
## Output 6.436

## Input Specify measured kcat for NC(=O)[C@@H]1CC[C@@H]2CN1C(=O)N2OS(=O)(=O)O [Avibactam, reference compound] .
## Output 0.4803

###

Give viability at 24 h, 50 μg/mL for every item shown.
TEST DESCRIPTION: MTT cytotoxicity assay
Assay type: cell-based
CONDITION INFO: mouse, NIH 3T3 cells, 50 μg/mL, read-out: cellular viability

## Input Specify measured viability at 24 h, 50 μg/mL for "O=C(O)c1ccccc1C(=O)N1CCN(c2nc(-c3ccccc3)ns2)CC1" .
## Output 82%

## Input Specify measured viability at 24 h, 50 μg/mL for "O=C(c1ccccc1)C1CCN(C(=O)CN2C(=O)c3ccccc3C2=O)CC1" .
## Output ~78%

## Input Specify measured viability at 24 h, 50 μg/mL for "O=C(CN1C(=O)c2ccccc2S1(=O)=O)c1ccc(O)c(O)c1" .
## Output ~78%

###

STUDY TARGET: TEM-1 (Escherichia coli, UniProt P62593)
Construct: made in house; host or cells: E. coli (DH5 and BL21(DE3) named; pET-28a)
TEST DESCRIPTION: Steady-state kinetics of antibiotic hydrolysis with inhibitor
Format: biochemical
CONDITION INFO: meropenem, inhibitor concentration as per IC50
Give Km or Ki for every item shown.

## Input Specify measured Km or Ki for "O=C(c1ccccc1)C1CCN(C(=O)CN2C(=O)c3ccccc3C2=O)CC1" .
## Output 7,537 μΜ

## Input Specify measured Km or Ki for "O=C(CN1C(=O)c2ccccc2S1(=O)=O)c1ccc(O)c(O)c1" .
## Output 253.5 μΜ

## Input Specify measured Km or Ki for "O=C(O)c1ccccc1C(=O)N1CCN(c2nc(-c3ccccc3)ns2)CC1" .
## Output 2,129 μΜ

## Input Specify measured Km or Ki for NC(=O)[C@@H]1CC[C@@H]2CN1C(=O)N2OS(=O)(=O)O [Avibactam, reference compound] .
## Output 12,315 μΜ
